Catalogue of compounds with associated NF-kB SEAP reporter activity
# System: RAW-Dual
# runDescription: NF-kB SEAP reporter activity, fold change vs agonist alone; cytotoxicity flag (confluency mask): not cytotoxic; higher = enhanced NF-kB activity
# statedConditions: agonist: Pam2CSK4 (TLR2/6) 0.1 ug/mL
In all, about 2,900 compounds were measured (“NF-kB SEAP reporter activity, fold change vs agonist alone”: median about 0.99, highest 2% from about 2.6 on). Only a selection was taken, and the highest values are over-represented in it overall.
// response body must contain only the number

Worked examples, 6 compounds total:
CCCCOc1nc(N)c2c(n1)N(Cc1cccc(CN3CCCC3)c1)CC(=O)N2 (library stock concentration (final ~1000-fold dilution): 1 mM)
1.17
[O-][n+]1cccc(-c2nc3c(Cl)cccc3cc2C(Nc2ncnc3cccnc23)C(F)(F)F)c1 (configuration not stated) (library stock concentration (final ~1000-fold dilution): 10 mM)
0.992
CCOC(=O)Nc1cc(-c2ccc(C)c(NS(C)(=O)=O)c2)nn2c(C)nnc12 (library stock concentration (final ~1000-fold dilution): 10 mM)
0.828
O=C(Cc1ccccc1)Nc1nnc(NC2CCN(c3nnc(NC(=O)Cc4ccccc4)s3)CC2)s1 (library stock concentration (final ~1000-fold dilution): 10 mM)
0.514
CCOC1OC(=O)CC1NC(=O)C1CCCN1C(=O)C(NC(=O)c1ccc(N)c(Cl)c1)C(C)(C)C (configuration not stated) (library stock concentration (final ~1000-fold dilution): 10 mM)
1
CCN1CCN(Cc2ccc(-c3cc4c(NC(C)c5ccccc5)ncnc4[nH]3)cc2)CC1 (configuration not stated) (library stock concentration (final ~1000-fold dilution): 10 mM)
1.02

The measured NF-kB SEAP reporter activity that O=S(=O)(N=Cc1c(O)ccc2ccccc12)c1cccs1 (library stock concentration (final ~1000-fold dilution): 10 mM) showed for RAW-Dual is 1.04

The measured NF-kB SEAP reporter activity that CC(C)=CCCC(C)(OC1OC(CO)C(O)C(O)C1O)C1CCC2(C)C1C(O)CC1C3(C)CCC(O)C(C)(C)C3C(OC3OC(CO)C(O)C(O)C3OC3OCC(O)C(O)C3O)CC12C (configuration not stated) (library stock concentration (final ~1000-fold dilution): 10 mM) showed for RAW-Dual is 0.792

The measured NF-kB SEAP reporter activity that CN1C(=O)c2sccc2N(C)c2nc(Nc3ccc(S(N)(=O)=O)cc3)ncc21 (library stock concentration (final ~1000-fold dilution): 10 mM) showed for RAW-Dual is 1.22

The measured NF-kB SEAP reporter activity that CC1CNc2c(cccc2S(=O)(=O)NC(CCCNC(=N)N)C(=O)N2CCC(C)CC2C(=O)O)C1.O (configuration not stated) (library stock concentration (final ~1000-fold dilution): 10 mM) showed for RAW-Dual is 0.969

The measured NF-kB SEAP reporter activity that CC(C)(NS(=O)(=O)c1ccc2c(Cl)cnc(NC(=N)N)c2c1)C(=O)O.Cl (library stock concentration (final ~1000-fold dilution): 10 mM) showed for RAW-Dual is 0.913

The measured NF-kB SEAP reporter activity that O=C1NC(=O)C(c2cnc3ccccn23)=C1c1cn2c3c(cc(F)cc13)CN(C(=O)N1CCCCC1)CC2 (library stock concentration (final ~1000-fold dilution): 10 mM) showed for RAW-Dual is 1.42

----------
Catalogue of compounds with associated NF-kB SEAP reporter activity
# System: RAW-Dual
# runDescription: NF-kB SEAP reporter activity, fold change vs agonist alone; higher = enhanced NF-kB activity
# statedConditions: library stock concentration (final ~1000-fold dilution): 10 mM; cytotoxicity flag (confluency mask): not cytotoxic; agonist: Imiquimod (TLR7) […]
In all, about 2,900 compounds were measured (“NF-kB SEAP reporter activity, fold change vs agonist alone”: median about 0.99, highest 2% from about 2.6 on). The sample as a whole holds a higher share of the highest values than the screen did.
// response body must contain only the number

Cc1ncc(Cl)cc1NCc1ccc(C(=O)NC(CC2CCCC2)C(=O)NC2CC2)s1 (stereo not given)
0.865
Cc1cc(C)cc(Oc2ccc(CNC(=O)C(C)N)cc2C)c1 (stereo not given)
1.24
CN(C)C(=O)Nc1cccc(-c2ccc(N(C)C)cc2)c1
0.998
NC(CSC(c1ccccc1)(c1ccccc1)c1ccccc1)C(=O)O (stereo not given)
0.946
CCCCCCOC(=O)c1cc(O)c(=O)c2c(O)c(O)c(OC)cc2c1
1.2

# NF-kB SEAP reporter activity of "Cl.Nc1ccc(N=Nc2ccccc2)c(N)n1" = 1.1

# NF-kB SEAP reporter activity of "O=C(O)CSc1cc(NS(=O)(=O)c2ccc(Br)cc2)c2ccccc2c1O" = 1.12
